meta.source: patent US9926275B2

Reported EC50 values for a set of compounds
target_or_system: CB1 receptor (Homo sapiens)
Sequence (P21554 whole entry): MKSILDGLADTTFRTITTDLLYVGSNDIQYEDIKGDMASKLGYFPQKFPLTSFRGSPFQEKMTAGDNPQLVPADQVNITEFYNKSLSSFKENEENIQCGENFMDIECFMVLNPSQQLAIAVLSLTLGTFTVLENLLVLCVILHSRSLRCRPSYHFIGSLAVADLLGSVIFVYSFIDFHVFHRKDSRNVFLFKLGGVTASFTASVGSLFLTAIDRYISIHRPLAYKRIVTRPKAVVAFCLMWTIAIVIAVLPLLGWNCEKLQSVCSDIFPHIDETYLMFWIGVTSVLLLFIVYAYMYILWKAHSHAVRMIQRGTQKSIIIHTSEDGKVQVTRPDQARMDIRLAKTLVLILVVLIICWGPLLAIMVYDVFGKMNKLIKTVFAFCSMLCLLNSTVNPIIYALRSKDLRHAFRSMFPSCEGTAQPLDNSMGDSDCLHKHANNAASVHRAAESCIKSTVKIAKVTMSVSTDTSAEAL
experiment_summary: DiscoveRx HitHunter cAMP XS+ assay in cAMP Hunter cell line, allosteric modulation of CP55,940 response
Format: cell-based
details: Table 1; preincubation with compound, then CP55,940 challenge; 20 μM forskolin; read-out: cAMP EC50
assay_metric: EC50 (nM)

{"compound": "Cc1ccccc1NC(=O)Nc1cccc(-c2cccc(N3CCCC3)n2)c1 [Compound 10p]", "assay_metric": "EC50", "units_label": "nM", "sign_qualifier": "=", "obs_value": 1700}
{"compound": "O=C(Nc1cccc(-c2cccc(N3CCCC3)n2)c1)Nc1ccc(Cl)c(CCCCOC2CCCCO2)c1 (centres unmarked) [Compound 23b]", "assay_metric": "EC50", "units_label": "nM", "sign_qualifier": "=", "obs_value": 354}
{"compound": "S=C(Nc1ccc(Cl)cc1)Nc1cccc(-c2cccc(N3CCCC3)n2)c1", "assay_metric": "EC50", "units_label": "nM", "sign_qualifier": "=", "obs_value": 830}
{"compound": "O=C(Nc1cccc(-c2cccc(N3CCCC3)n2)c1)Nc1ccc(Cl)c(CCCCO)c1 [Compound 24b]", "assay_metric": "EC50", "units_label": "nM", "sign_qualifier": "=", "obs_value": 1420}
{"compound": "Cc1cc(Cl)ccc1NC(=O)Nc1cccc(-c2cccc(N3CCCC3)n2)c1 [Compound 10s]", "assay_metric": "EC50", "units_label": "nM", "sign_qualifier": ">", "obs_value": 10000}
{"compound": "O=C(Nc1ccc(Cl)cc1)Nc1cccc(-c2cccc(N3CCCC3)c2)c1", "assay_metric": "EC50", "units_label": "nM", "sign_qualifier": "=", "obs_value": 679}
{"compound": "O=C(Nc1ccc(Cl)cc1)Nc1cccc(-c2cccc(N3CCNCC3)n2)c1 [Compound 67b]", "assay_metric": "EC50", "units_label": "nM", "sign_qualifier": "=", "obs_value": 274}
{"compound": "O=C(Nc1cccc(-c2cccc(N3CCCC3)n2)c1)Nc1ccc(Cl)c(I)c1 [Compound 19b]", "assay_metric": "EC50", "units_label": "nM", "sign_qualifier": ">", "obs_value": 10000}
{"compound": "Clc1ccc(Nc2nnc(-c3cccc(-c4cccc(N5CCCC5)n4)c3)o2)cc1", "assay_metric": "EC50", "units_label": "nM", "sign_qualifier": ">", "obs_value": 10000}
{"compound": "CN(C(=O)Nc1ccc(Cl)cc1)c1cccc(-c2cccc(N3CCCC3)n2)c1", "assay_metric": "EC50", "units_label": "nM", "sign_qualifier": "=", "obs_value": 527}
{"compound": "O=C(Nc1cccc(-c2cccc(N3CCCC3)n2)c1)Nc1ccc(Cl)c(C#CCCO)c1 [Compound 22b]", "assay_metric": "EC50", "units_label": "nM", "sign_qualifier": "=", "obs_value": 551}
{"compound": "O=C(Nc1ccc(Cl)cc1)Nc1ccccc1-c1cccc(N2CCCC2)n1", "assay_metric": "EC50", "units_label": "nM", "sign_qualifier": "=", "obs_value": 3400}
{"compound": "O=C(Nc1cccc(-c2cccc(N3CCCC3)n2)c1)Nc1ccc(Cl)cc1C#CCCO [Compound 22a]", "assay_metric": "EC50", "units_label": "nM", "sign_qualifier": "=", "obs_value": 6490}
{"compound": "O=C(Nc1cccc(-c2cccc(N3CCCC3)n2)c1)Nc1ccc2ccccc2c1 [Compound 10x]", "assay_metric": "EC50", "units_label": "nM", "sign_qualifier": "=", "obs_value": 1830}
{"compound": "COC(=O)c1ccccc1NC(=O)Nc1cccc(-c2cccc(N3CCCC3)n2)c1", "assay_metric": "EC50", "units_label": "nM", "sign_qualifier": ">", "obs_value": 10000}
{"compound": "O=C(Nc1ccc(Cl)cc1)Nc1cccc(-c2ccc(N3CCCC3)nc2)c1", "assay_metric": "EC50", "units_label": "nM", "sign_qualifier": ">", "obs_value": 10000}
{"compound": "CN(C(=O)Nc1cccc(-c2cccc(N3CCCC3)n2)c1)c1ccc(Cl)cc1 [Compound 13a]", "assay_metric": "EC50", "units_label": "nM", "sign_qualifier": "=", "obs_value": 1640}
